# System: SF-539
# Assay: NCI tumour cell line growth inhibition, 48 h
Activity calls are given as the source filed them. No stated cut-off is given here; in the data, active = GI50 up to about 1.1 µM and inactive = higher.
Quantity: GI50

In [3]: df
Out[3]:
                                   compound            obs_value
0                       CC(=O)N1CCN(C=S)CC1  > 100 µM (inactive)
1  c1ccc2cc(OCC3CO3)c(OCC3CO3)cc2c1 (centres undefined)   2.65 µM (inactive)
2           Cc1cc(O)c(-c2cc(O)c(C)cc2O)cc1O   3.02 µM (inactive)
3  C[C@H]1C(=O)CC[C@]2(C)CCC(C(C)(C)O)CC12O (some centres undefined)  > 100 µM (inactive)
4  COc1ccc(/C=C2\CCC(CNc3cc(C)on3)C2=O)cc1 (centres undefined)  > 100 µM (inactive)
5         Cc1ccc2c(c1)NC(=O)CC(c1ccccc1)=N2  > 100 µM (inactive)
6                       CC(C)OCN/C(N)=N\C#N  > 100 µM (inactive)
7  O=C1C2CCC(C2)C12CC1(c3ccccc3)C(=O)c3ccccc3N1O2 (centres undefined)  > 100 µM (inactive)
8  Cc1cc(O)cc2c1O[C@@]1(C)CCC3[C@@]4(C)CC[C@H](O)C(C)(C)C4CC[C@@]3(C)[C@H]1C2 (some centres undefined)   2.23 µM (inactive)

====

Each item that follows carries a reported GI50.
# System: RXF 393
# Assay: NCI tumour cell line growth inhibition, 48 h
Where a name gives a salt, the structure may show the parent alone. The source made the active and inactive calls. No stated cut-off is given here; in the data, active = GI50 up to about 1.1 µM and inactive = higher.
Quantity: GI50

                                    molecule  experimental_target  quantity            obs_value
 0  O=C(CC(c1ccccc1)N1CCCCC1)c1ccccc1 (configuration not stated)              RXF 393      GI50     18 µM (inactive)
 1  CC(=O)OCC1OC(n2c(Br)nc3c2c(=O)n(C)c(=O)n3C)C(OC(C)=O)C1OC(C)=O (configuration not stated)              RXF 393      GI50  > 100 µM (inactive)
 2  CC1(C)OCC(C2OC(OC(=O)c3ccc([N+](=O)[O-])cc3)C3OC(C)(C)OC23)O1 (configuration not stated)              RXF 393      GI50   58.1 µM (inactive)
 3           Cc1cc([N+](=O)[O-])c(C)c(Br)c1C              RXF 393      GI50   60.5 µM (inactive)
 4  COC1O[C@@H]2COC(C)(C)O[C@@H]2C(=O)N1Nc1ccc([N+](=O)[O-])cc1 (some centres not stated)              RXF 393      GI50  > 100 µM (inactive)
 5  CC(=O)OCCC(O[Si](c1ccccc1)(c1ccccc1)C(C)(C)C)C(C)(C)O (configuration not stated)              RXF 393      GI50   17.6 µM (inactive)
 6  N[C@@H](Cc1ccc(N(CCCl)CCCl)cc1)C(=O)O [MELPHALAN HYDROCHLORIDE]              RXF 393      GI50   28.9 µM (inactive)
 7  CC(NS(=O)(=O)c1ccc([N+](=O)[O-])cc1)C(=O)O (configuration not stated)              RXF 393      GI50  > 100 µM (inactive)
 8  CC(=O)Nc1ccc(-c2nnc(SCC(=O)Nc3cccc(Cl)c3)o2)cc1              RXF 393      GI50   17.4 µM (inactive)
 9  CC(C(O)Cc1ccccc1)N(C)/N=N/c1ccc([N+](=O)[O-])cc1 (configuration not stated)              RXF 393      GI50   1.19 µM (inactive)
10  COC(=O)CC1C(=O)OCc2c1cc1n(c2=O)Cc2c-1nc1ccccc1c2OC (configuration not stated)              RXF 393      GI50   17.5 µM (inactive)
11  N#CC(C(=O)CCC(=O)Nc1ccc(Cl)c(Cl)c1)c1ccc(Cl)cc1 (configuration not stated)              RXF 393      GI50  > 100 µM (inactive)
12            COc1ccc(/C=C2\N=C(SC)NC2=O)cc1              RXF 393      GI50   67.3 µM (inactive)
13  CCCN(CCC)C(=O)c1c([N+](=O)[O-])cc(C(F)(F)F)cc1[N+](=O)[O-]              RXF 393      GI50   26.2 µM (inactive)
14  COc1cccc(N2C(Cl)C(=O)C2c2c[nH]c3ccccc23)c1 (configuration not stated)              RXF 393      GI50  > 100 µM (inactive)
15  CC1=NN=C(N)N/C1=C\C(Sc1ccc(Cl)cc1)c1ccc(Cl)cc1Cl (configuration not stated)              RXF 393      GI50   16.3 µM (inactive)
16  CCOC(=O)c1nc2cc(C(F)(F)F)ccc2nc1Oc1ccc(C#N)cc1              RXF 393      GI50   19.1 µM (inactive)
